Can you tell me IC50 for the items I'm about to list?
Target: UniProt Q8IL11
Sequence (Q8IL11 whole entry): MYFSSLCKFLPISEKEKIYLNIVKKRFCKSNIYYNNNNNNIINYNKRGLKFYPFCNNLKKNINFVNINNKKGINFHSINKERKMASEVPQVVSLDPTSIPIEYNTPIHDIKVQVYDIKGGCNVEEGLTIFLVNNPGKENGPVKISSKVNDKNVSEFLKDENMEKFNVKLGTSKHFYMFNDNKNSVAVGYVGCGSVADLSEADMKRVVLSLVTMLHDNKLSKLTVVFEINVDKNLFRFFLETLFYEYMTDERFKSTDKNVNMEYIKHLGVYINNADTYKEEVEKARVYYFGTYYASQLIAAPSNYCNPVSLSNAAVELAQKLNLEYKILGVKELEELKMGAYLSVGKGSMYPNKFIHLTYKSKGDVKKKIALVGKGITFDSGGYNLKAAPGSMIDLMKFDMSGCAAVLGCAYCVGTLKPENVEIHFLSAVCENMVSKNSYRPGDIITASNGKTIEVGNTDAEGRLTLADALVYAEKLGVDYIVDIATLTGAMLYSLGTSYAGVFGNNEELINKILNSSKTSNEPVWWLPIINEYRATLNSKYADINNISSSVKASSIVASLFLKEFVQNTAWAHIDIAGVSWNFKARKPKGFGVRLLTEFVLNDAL
Experiment: P. falciparum M17LAP inhibitors, primary screen, biochemical, fluorogenic H-Leu-NHMec substrate, 1536-well (AID 1619)
Assay type: functional
The source made the active and inactive calls.

Fill in: UniProt Q8IL11 IC50 for Cc1ccc(S(=O)(=O)Nc2nncs2)cc1 = 23.2 µM (active)

# O=C(O)CSc1nnc(CNc2cccc(C(F)(F)F)c2)n1Cc1ccco1 with UniProt Q8IL11: IC50 is 48.8 µM (active)

Query Oc1ccc(/C=N/NC(=S)Nc2cccnc2)cc1O on UniProt Q8IL11; IC50 returned: 49.6 µM (active)

Measured on UniProt Q8IL11, CCOC(=O)C1CSC(CC(=O)Nc2ccc(OCC)cc2)C(=O)N1 (stereo unspecified) has a documented IC50 of 11.4 µM (active)

Item Cc1sc(NC(=S)Nc2ccc(F)cc2)c(C(N)=O)c1C was tested on UniProt Q8IL11; the reported IC50 is 53.1 µM (active)

Observed IC50, UniProt Q8IL11, Clc1cc(Cl)cc(Nc2nc[nH]n2)c1 : 23.3 µM (active)

* * *

Tested on: H9c2;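 further: cell death induced by hydrogen peroxide oxidative stress; compound pretreatment for 60 min then peroxide exposure for 2 h; potency is for protecting the cells against peroxide damage rather than for killing them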;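 further: confirmatory concentration-response retest of ultra-high-throughput screening hits for modulation of myocardial damage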
Assay: cells
Type: functional, cell-based
Conditions: Rattus norvegicus, H9c2, Myocardium
Activity calls are given as the source filed them.
Please state which outcome applies, choosing from active, inactive

[Q] Given COc1ccccc1OCC(=O)N/N=C/c1cccc2cccnc12 , state the outcome it received in this test.
[A] active

[Q] What did the test return for O=C(CSc1nc2ccccc2o1)NCc1nnc(O)c2ccccc12 ?
[A] active

[Q] Test call for this compound, please: CCOC(=O)c1nc(Nc2ccc(C(=O)OC)cc2)c2ccccc2n1
[A] inactive

[Q] Look up the recorded call for COC(=O)Cn1/c(=N/C(=O)c2cc(-c3cccs3)nc3ccccc23)sc2cc(S(N)(=O)=O)ccc21 in this test.
[A] active

[Q] Assay result, entry O=C(N/N=C/c1ccccn1)c1ccc(NC(=O)c2cccc([N+](=O)[O-])c2)cc1 — outcome?
[A] inactive

* * *

Target: Paired box protein Pax-8 (Homo sapiens, UniProt Q06710)
Sequence (Q06710 whole entry): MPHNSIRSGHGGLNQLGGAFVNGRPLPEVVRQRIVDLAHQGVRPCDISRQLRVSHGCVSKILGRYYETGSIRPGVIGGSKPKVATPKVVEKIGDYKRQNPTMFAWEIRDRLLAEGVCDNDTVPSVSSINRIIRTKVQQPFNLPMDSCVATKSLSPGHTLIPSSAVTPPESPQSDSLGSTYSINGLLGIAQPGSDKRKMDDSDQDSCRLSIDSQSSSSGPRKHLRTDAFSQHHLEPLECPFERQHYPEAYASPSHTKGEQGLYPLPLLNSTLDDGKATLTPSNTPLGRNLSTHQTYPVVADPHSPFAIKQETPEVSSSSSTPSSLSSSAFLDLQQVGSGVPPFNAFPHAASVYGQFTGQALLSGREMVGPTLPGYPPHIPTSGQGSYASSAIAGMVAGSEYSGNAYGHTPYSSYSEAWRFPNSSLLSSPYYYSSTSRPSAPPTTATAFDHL
Experiment: inhibitors of PAX8-driven TPO luciferase reporter, dose response, RMG-I cells, cherry-pick (AID 687027);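 further: luciferase reporter driven by Pax8 target thyroperoxidase promoter measured by SteadyGlo luminescence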
Assay type: functional, cell-based
Activity calls are given as the source filed them.
parameter: AC50

Record C[C@@H]1CCCCO[C@H](CN(C)Cc2ccncc2)[C@H](C)CN([C@H](C)CO)C(=O)c2cc(NC(=O)Nc3ccc(C(F)(F)F)cc3)ccc2O1 . Reported AC50: 7.43 µM (active)

get_value(item= O=C(Nc1ccccc1)N1CCCCN2[C@H](CO)[C@H](c3ccc(C#Cc4ccccc4)cc3)[C@H]2C1 , readout=AC50) returns 16.8 µM (active)

The molecule listed as CC(C)CC#Cc1ccc2c(c1)O[C@H](CN(C)S(=O)(=O)c1ccc(F)cc1)[C@H](C)CN([C@H](C)CO)S2(=O)=O has a reported AC50 of 14.5 µM (active)

The recorded AC50 for entry COc1ccc(-n2nnnc2C(CCc2ccccc2)N2CCC(n3c(O)nc4ccccc43)CC2)cc1 (configuration not stated) equals 7.54 µM (active)

Documented AC50 of C[C@@H]1CN([C@@H](C)CO)C(=O)c2cc(NC(=O)NC3CCCCC3)ccc2O[C@@H](C)CCCCO[C@H]1CN(C)Cc1ccc(C(F)(F)F)cc1 : 11.5 µM (active)

Sample O=C(Cc1cccnc1)N1CCCCN2[C@H](C1)[C@H](c1ccc(/C=C/c3ccccc3)cc1)[C@@H]2CO ; AC50 observed: 4.42 µM (active)

AC50 reading for C[C@@H]1CN([C@H](C)CO)C(=O)c2cc(NC(=O)Nc3ccc(F)cc3)ccc2O[C@@H](C)CCCCO[C@H]1CN(C)C(=O)Nc1ccc(F)cc1 : 10.8 µM (active)
